test-protocol: self-splicing fitness, log relative to wild type (ln ratio); higher = more splicing; Tetrahymena group I intron in knt gene, E. coli kanamycin selection, DiMSum; sequences stand for … in CUCUCU…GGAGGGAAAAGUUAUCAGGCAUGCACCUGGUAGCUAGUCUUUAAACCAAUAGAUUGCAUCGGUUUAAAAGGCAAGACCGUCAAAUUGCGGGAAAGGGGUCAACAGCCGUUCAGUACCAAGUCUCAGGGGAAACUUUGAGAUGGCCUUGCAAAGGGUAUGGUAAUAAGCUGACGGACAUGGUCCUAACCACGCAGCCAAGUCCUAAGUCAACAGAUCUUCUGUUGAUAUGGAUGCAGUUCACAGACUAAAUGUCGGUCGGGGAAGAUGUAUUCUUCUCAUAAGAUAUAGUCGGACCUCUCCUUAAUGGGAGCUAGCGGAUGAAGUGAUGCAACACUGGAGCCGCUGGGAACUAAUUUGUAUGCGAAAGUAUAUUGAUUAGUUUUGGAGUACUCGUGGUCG;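 also: selection with 25 µg/mL kanamycin versus none on LB agar overnight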
condition-info: 30 °C
readout-kind: self-splicing fitness (ln)

sequence	readout-kind	reported-value
AAUCAGCAAUAUUACGUUAC	self-splicing fitness (ln)	-2.78
UCUUAGCAAUAUUACGGACU	self-splicing fitness (ln)	-2.76
UCUGAGCAAUAUUACGGCCU	self-splicing fitness (ln)	-3.3
AUGUAGCAAUAUUACGAGUG	self-splicing fitness (ln)	-2.52
ACUGAGCAAUAUUACGAUAA	self-splicing fitness (ln)	-2.94
CUAGAGCAAUAUUACGCCGU	self-splicing fitness (ln)	-2.86
GCAAAGCAAUAUUACGGCCU	self-splicing fitness (ln)	-0.867
UUGCAGCAAUAUUACGAAAC	self-splicing fitness (ln)	-3.32
AUUGAGCAAUAUUACGACGG	self-splicing fitness (ln)	-4.09
GCAAAGCAAUAUUACGACGA	self-splicing fitness (ln)	-0.0819

====

Property: self-splicing fitness (ln); scope: individual sequences
test-protocol: self-splicing fitness, log relative to wild type (ln ratio); higher = more splicing; Tetrahymena group I intron in knt gene, E. coli kanamycin selection, DiMSum; sequences stand for … in CUCUCU…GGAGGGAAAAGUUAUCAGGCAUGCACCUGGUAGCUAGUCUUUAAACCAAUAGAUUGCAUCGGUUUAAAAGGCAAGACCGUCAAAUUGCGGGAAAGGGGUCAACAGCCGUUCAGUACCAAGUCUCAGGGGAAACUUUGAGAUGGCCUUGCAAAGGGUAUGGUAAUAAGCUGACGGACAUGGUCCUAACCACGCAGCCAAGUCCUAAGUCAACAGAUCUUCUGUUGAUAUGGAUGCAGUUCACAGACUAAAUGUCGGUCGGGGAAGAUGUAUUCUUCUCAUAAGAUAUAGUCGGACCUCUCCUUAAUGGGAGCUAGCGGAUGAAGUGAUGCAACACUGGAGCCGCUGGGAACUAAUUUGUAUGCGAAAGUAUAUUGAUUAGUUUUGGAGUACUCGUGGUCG
condition-info: 37 °C
readout-kind: self-splicing fitness (ln)

sequence	readout-kind	reported-value
CGUCAGCAAUAUUACGUUGC	self-splicing fitness (ln)	-2.89
AUGUAGCAAUAUUACGUCUA	self-splicing fitness (ln)	-0.893
GGUCAGCAAUAUUACGUAUC	self-splicing fitness (ln)	-0.138
GAUUAGCAAUAUUACGGCGU	self-splicing fitness (ln)	-0.796
UACCAGCAAUAUUACGUGAC	self-splicing fitness (ln)	-1.12
GAUAAGCAAUAUUACGUCGA	self-splicing fitness (ln)	-0.37
AUGGAGCAAUAUUACGUAAU	self-splicing fitness (ln)	-0.189
ACUGAGCAAUAUUACGUUCC	self-splicing fitness (ln)	-2.52
UCCAAGCAAUAUUACGUGUG	self-splicing fitness (ln)	-1.75
UUUGAGCAAUAUUACGGAAA	self-splicing fitness (ln)	-1.95
GUUGAGCAAUAUUACGGGCA	self-splicing fitness (ln)	-0.813
CUCUAGCAAUAUUACGUGAU	self-splicing fitness (ln)	-3.92
CUGUAGCAAUAUUACGGGAA	self-splicing fitness (ln)	-2.12
CUACAGCAAUAUUACGCCAG	self-splicing fitness (ln)	-0.891
GUUGAGCAAUAUUACGACCU	self-splicing fitness (ln)	-1.56
AAAAAGCAAUAUUACGGACU	self-splicing fitness (ln)	-0.0238
UAGUAGCAAUAUUACGCCAG	self-splicing fitness (ln)	-1.94
GUUAAGCAAUAUUACGCCUU	self-splicing fitness (ln)	0.261
CAACAGCAAUAUUACGGCUU	self-splicing fitness (ln)	-0.875
AUCUAGCAAUAUUACGAAUG	self-splicing fitness (ln)	-0.667
UUCUAGCAAUAUUACGAAAA	self-splicing fitness (ln)	-0.631
AAGAAGCAAUAUUACGAGUG	self-splicing fitness (ln)	-1.23
AAUUAGCAAUAUUACGCAGU	self-splicing fitness (ln)	-1.3
CUCGAGCAAUAUUACGGUGC	self-splicing fitness (ln)	-2.88
UUACAGCAAUAUUACGCGUG	self-splicing fitness (ln)	-0.156
UAAGAGCAAUAUUACGGGUG	self-splicing fitness (ln)	-1.06
UAGCAGCAAUAUUACGUACA	self-splicing fitness (ln)	-0.0473
GCUCAGCAAUAUUACGCCAG	self-splicing fitness (ln)	-1.83
UCUAAGCAAUAUUACGGUCC	self-splicing fitness (ln)	-0.662
ACUUAGCAAUAUUACGACAU	self-splicing fitness (ln)	-0.251
UUUAAGCAAUAUUACGUGUG	self-splicing fitness (ln)	-0.602
CACCAGCAAUAUUACGGGAC	self-splicing fitness (ln)	-2.05
GGAAAGCAAUAUUACGGCCU	self-splicing fitness (ln)	-0.809
GGUUAGCAAUAUUACGUCCA	self-splicing fitness (ln)	-0.199
UAUGAGCAAUAUUACGAGGU	self-splicing fitness (ln)	-3.62
CGGGAGCAAUAUUACGGCAC	self-splicing fitness (ln)	-1.62
CCUAAGCAAUAUUACGUUUG	self-splicing fitness (ln)	-3.16
UUGCAGCAAUAUUACGGACA	self-splicing fitness (ln)	-0.669
GGUUAGCAAUAUUACGGGGG	self-splicing fitness (ln)	-2.37
ACAGAGCAAUAUUACGGAGC	self-splicing fitness (ln)	-3.15
GCGUAGCAAUAUUACGUGGC	self-splicing fitness (ln)	-2.75
CUUUAGCAAUAUUACGACCG	self-splicing fitness (ln)	0.518
UCUCAGCAAUAUUACGAAUA	self-splicing fitness (ln)	-0.0366
GGGCAGCAAUAUUACGAGAA	self-splicing fitness (ln)	-1.87
UAUAAGCAAUAUUACGGGAU	self-splicing fitness (ln)	-2.86
GGCCAGCAAUAUUACGGUGA	self-splicing fitness (ln)	0.327
AGGGAGCAAUAUUACGAUGC	self-splicing fitness (ln)	-2.65
ACAUAGCAAUAUUACGUGAC	self-splicing fitness (ln)	-2.16
UUGAAGCAAUAUUACGUGUG	self-splicing fitness (ln)	-0.69
UGCUAGCAAUAUUACGCUAC	self-splicing fitness (ln)	-2.32
GUUAAGCAAUAUUACGAAGU	self-splicing fitness (ln)	-1.45
GCCGAGCAAUAUUACGCGCA	self-splicing fitness (ln)	-0.221
AACUAGCAAUAUUACGCAAU	self-splicing fitness (ln)	-2.15
CCCGAGCAAUAUUACGAGAA	self-splicing fitness (ln)	-2.1
AGGCAGCAAUAUUACGCCUA	self-splicing fitness (ln)	-0.0372
AGCUAGCAAUAUUACGUCGG	self-splicing fitness (ln)	-1.32

====

test-protocol: self-splicing fitness, log relative to wild type (ln ratio); higher = more splicing; Tetrahymena group I intron in knt gene, E. coli kanamycin selection, DiMSum; sequences stand for … in CUCUCU…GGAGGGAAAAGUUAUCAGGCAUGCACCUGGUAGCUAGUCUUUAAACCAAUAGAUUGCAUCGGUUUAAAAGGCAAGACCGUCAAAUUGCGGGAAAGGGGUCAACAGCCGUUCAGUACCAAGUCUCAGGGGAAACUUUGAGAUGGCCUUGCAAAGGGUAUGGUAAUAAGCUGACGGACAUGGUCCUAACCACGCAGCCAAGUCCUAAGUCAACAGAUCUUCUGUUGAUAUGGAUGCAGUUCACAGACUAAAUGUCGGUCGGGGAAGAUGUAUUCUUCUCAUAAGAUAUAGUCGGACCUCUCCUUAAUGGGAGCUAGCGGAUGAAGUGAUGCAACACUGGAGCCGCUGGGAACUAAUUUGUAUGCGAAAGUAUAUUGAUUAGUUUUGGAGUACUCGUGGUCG
condition-info: 30 °C
Property: self-splicing fitness (ln); scope: individual sequences

sequence	self-splicing fitness (ln)
AAGAAGCAAUAUUACGCUAG	-2.36
GUGCAGCAAUAUUACGUCAU	-2.23
CGUGAGCAAUAUUACGUAGG	-1.12
GCCGAGCAAUAUUACGCUGA	-1.88
AGCAAGCAAUAUUACGGCUC	-4.6
UUCUAGCAAUAUUACGAAGG	-2.9
AUGUAGCAAUAUUACGCAUA	-2.46
UGGCAGCAAUAUUACGCUGC	-2.98
CCCGAGCAAUAUUACGGCGU	-2.83
GGCCAGCAAUAUUACGACAC	-0.242
CACCAGCAAUAUUACGUUUU	-3.95
CCUUAGCAAUAUUACGCAAU	-3.51
CGAUAGCAAUAUUACGUGGU	-3.97
AGGAAGCAAUAUUACGCCUA	-0.554
CAUUAGCAAUAUUACGAUCG	0.173
UCCAAGCAAUAUUACGUGCC	-3.87
AAGUAGCAAUAUUACGCAUC	-3.84
GUCUAGCAAUAUUACGGAGU	-0.693
GUGAAGCAAUAUUACGUGGU	-4.17
GGCUAGCAAUAUUACGGAUA	-0.897
GCCUAGCAAUAUUACGGGCC	-4.2
GCUGAGCAAUAUUACGGAUU	-2.33
GGUAAGCAAUAUUACGAGAU	-2.94
UCUCAGCAAUAUUACGGUCG	-1.96
CGAAAGCAAUAUUACGGGGA	-3.09
